# protocol details: in vivo
# condition info: rat, po
Could you please report measured LD50 at 168 h for the items listed next?

The compound CCCCCCCCCCOCCN1CCCC1=O showed LD50 at 168 h equal to > 5000 mg/kg

The compound CCCCCCCCCCSCCN1CCCC1=O showed LD50 at 168 h equal to > 5000 mg/kg

The compound CCCCCCCCCCCCN1CCCCCC1=O [Azone, 1-n-dodecylazacycloheptane-2-one, reference compound] showed LD50 at 168 h equal to > 5000 mg/kg

The compound CCCCCCCOCCCCN1CCCCCC1=O showed LD50 at 168 h equal to > 5000 mg/kg

The compound CN1CCCC1=O [1-methyl-2-pyrolidone, 1-methyl-2-pyrrolidone, reference compound] showed LD50 at 168 h equal to 1000 to 2000 mg/kg

The compound CCCCCCCSCCCCN1CCCCCC1=O showed LD50 at 168 h equal to > 5000 mg/kg
